Values from patent US10954228B2

Could you please report measured pIC50 for the items listed next?
# Test system: MiaPaCa2 cells
# PROTOCOL_NOTES: cell-based HT lactate assay by colorimetric/fluorometric detection (cellular inhibition of lactate production)
# TEST_PARAMETERS: Homo sapiens, MIA PaCa-2, assay of Example 6
pIC50: −log10 of the molar value.

Examples from the recorded data:
SMILES_TEXT: NS(=O)(=O)c1ccc(Cc2c(-c3cccc(-c4ccc(Cl)c(F)c4)c3)nn(-c3nc(C(=O)O)cs3)c2CC2CC2)cc1F
MEASURED_PARAMETER: pIC50
TEST_RESULT: > 6.00

SMILES_TEXT: Cc1ccc(C#Cc2cccc(-c3nn(-c4nc(C(=O)O)cs4)c(CC4CC4)c3Cc3ccc(S(N)(=O)=O)c(F)c3)c2)s1
MEASURED_PARAMETER: pIC50
TEST_RESULT: > 6.00

SMILES_TEXT: NS(=O)(=O)c1ccc(Cc2c(-c3ccc(F)c(-c4ccc(Cl)c(F)c4)c3)nn(-c3nc(C(=O)O)cs3)c2CC2CC2)cc1F
MEASURED_PARAMETER: pIC50
TEST_RESULT: > 6.00

SMILES_TEXT: NS(=O)(=O)c1ccc(Cc2c(-c3ccc(F)c(C4=CCCCC4)c3)nn(-c3nc(C(=O)O)cs3)c2CC2CC2)cc1F
MEASURED_PARAMETER: pIC50
TEST_RESULT: > 6.00

SMILES_TEXT: CC(C)c1cccc(-c2cccc(-c3nn(-c4nc(C(=O)O)cs4)c(CC4CC4)c3Cc3ccc(S(N)(=O)=O)c(F)c3)c2)c1
MEASURED_PARAMETER: pIC50
TEST_RESULT: < 4.24

// below: pIC50 requested for another compound
Report pIC50 on MiaPaCa2 cells for this entry: Cc1ccc(C#Cc2cccc(-c3nn(-c4nc(C(=O)O)cs4)c(CC4(C)CC4)c3Cc3ccc(S(N)(=O)=O)c(F)c3)c2)s1
> 6.00

###

Could you please report measured IC50 for the items listed next?
# TARGET: Human LDHA (Homo sapiens (Human))
# PROTOCOL_NOTES: human LDHA primary biochemical assay
# TEST_PARAMETERS: biochemical LDHA inhibitory activity, assay of Example 1; activity level classes defined in nM

SMILES_TEXT: COc1ccc(-c2cccc(-c3nn(-c4nc(C(=O)O)cs4)c(CC4CC4)c3Cc3ccc(S(N)(=O)=O)c(F)c3)c2)cc1C
TEST_RESULT: < 100 nM
--
SMILES_TEXT: CC(C)Cc1ccc(-c2cccc(-c3nn(-c4nc(C(=O)O)cs4)c(CCC4CC4)c3Cc3ccc(S(N)(=O)=O)c(F)c3)c2)cc1
TEST_RESULT: 100 to 1000 nM

Answer for every listed entry: what is its IC50? The entries follow.
1. NS(=O)(=O)c1ccc(Cc2c(-c3ccc(F)c(-c4ccc5c(c4)CCC5)c3)nn(-c3nc(C(=O)O)cs3)c2CC2CC2)cc1F
2. Cc1ccc(C#Cc2cc(-c3nn(-c4nc(C(=O)O)cs4)c(CC4CC4)c3Cc3ccc(S(N)(=O)=O)c(F)c3)ccc2F)s1
3. NS(=O)(=O)c1ccc(Cc2c(-c3cccc(C#Cc4ccc(C(F)(F)F)s4)c3)nn(-c3nc(C(=O)O)cs3)c2CC2CC2)cc1F

< 100 nM
< 100 nM
100 to 1000 nM

Please look at this molecule and report its IC50: N#Cc1cccc(-c2cc(-c3nn(-c4nc(C(=O)O)cs4)c(CC4CC4)c3Cc3ccc(S(N)(=O)=O)c(F)c3)ccc2F)c1
< 100 nM
